Measured On: human recombinant ENPP1 (Homo sapiens)
Sequence (P22413 whole entry): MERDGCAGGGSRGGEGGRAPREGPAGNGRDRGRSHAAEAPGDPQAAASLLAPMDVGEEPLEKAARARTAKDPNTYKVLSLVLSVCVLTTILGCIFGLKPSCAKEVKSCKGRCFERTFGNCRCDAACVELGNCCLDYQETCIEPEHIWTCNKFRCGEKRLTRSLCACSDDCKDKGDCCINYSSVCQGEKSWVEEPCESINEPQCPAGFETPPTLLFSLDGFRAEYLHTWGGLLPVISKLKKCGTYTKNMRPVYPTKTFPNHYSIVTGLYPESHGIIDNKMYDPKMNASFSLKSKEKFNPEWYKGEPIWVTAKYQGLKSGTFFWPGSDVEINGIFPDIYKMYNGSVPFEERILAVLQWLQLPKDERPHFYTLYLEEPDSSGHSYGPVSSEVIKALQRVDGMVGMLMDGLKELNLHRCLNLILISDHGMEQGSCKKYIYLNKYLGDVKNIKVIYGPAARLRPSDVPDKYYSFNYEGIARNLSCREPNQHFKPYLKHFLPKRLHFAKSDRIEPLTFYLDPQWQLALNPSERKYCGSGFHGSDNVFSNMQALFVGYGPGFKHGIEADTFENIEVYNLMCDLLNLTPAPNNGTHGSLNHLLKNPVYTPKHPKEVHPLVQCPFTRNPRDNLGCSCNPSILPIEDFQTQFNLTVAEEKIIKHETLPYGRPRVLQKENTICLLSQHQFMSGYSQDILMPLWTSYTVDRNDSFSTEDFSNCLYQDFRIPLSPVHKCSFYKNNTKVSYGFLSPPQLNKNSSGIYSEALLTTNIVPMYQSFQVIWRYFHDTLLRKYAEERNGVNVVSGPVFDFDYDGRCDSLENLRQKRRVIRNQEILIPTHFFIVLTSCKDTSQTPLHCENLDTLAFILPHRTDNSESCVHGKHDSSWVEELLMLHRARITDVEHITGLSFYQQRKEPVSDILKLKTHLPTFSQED
Test Name: ENPP1 enzyme assay with cGAMP substrate (AMP-Glo)
Condition Details: human recombinant ENPP1 3 ng per reaction, cGAMP 5 μM, 37° C., 90 minutes, AMP-Glo luminescence
Counter-ions that a name gives are not always drawn.
Recorded measurements of IC50, one per entry
Value Kind: IC50

[[record]]
molecule = "CC(C)(N)c1ccc(-c2ncnc3[nH]ccc23)cc1 [Example 12, hydrochloride]"
measured_on = "human recombinant ENPP1 (Homo sapiens)"
reading = "> 10 µM"

[[record]]
molecule = "CC(C)n1ccc2c(N3CCC(CNS(N)(=O)=O)CC3)ncnc21"
measured_on = "human recombinant ENPP1 (Homo sapiens)"
reading = "> 10 µM"

[[record]]
molecule = "NS(=O)(=O)N1CCC2(CCN(c3ncnc4[nH]ccc34)CC2)C1 [Example 80, hydrochloride]"
measured_on = "human recombinant ENPP1 (Homo sapiens)"
reading = "< 1 µM"

[[record]]
molecule = "NCC1CCN(c2ncnc3[nH]ccc23)CC1 [Example 65, hydrochloride]"
measured_on = "human recombinant ENPP1 (Homo sapiens)"
reading = "1 to 10 µM"

[[record]]
molecule = "NS(=O)(=O)NCC1CCN(c2ncnc3c2ccn3-c2cccnc2)CC1 [Example 84, hydrochloride]"
measured_on = "human recombinant ENPP1 (Homo sapiens)"
reading = "1 to 10 µM"

[[record]]
molecule = "NS(=O)(=O)NCc1ccc(-c2ccnc3[nH]ccc23)cc1 [Example 24, hydrochloride]"
measured_on = "human recombinant ENPP1 (Homo sapiens)"
reading = "1 to 10 µM"

[[record]]
molecule = "NS(=O)(=O)NCc1ccc(-c2ncnc3[nH]ccc23)cc1 [Example 25, hydrochloride]"
measured_on = "human recombinant ENPP1 (Homo sapiens)"
reading = "1 to 10 µM"

[[record]]
molecule = "NS(=O)(=O)NCC1CCN(c2ncnc3[nH]ccc23)CC1"
measured_on = "human recombinant ENPP1 (Homo sapiens)"
reading = "< 1 µM"

[[record]]
molecule = "NS(=O)(=O)NCCC1CCN(c2ncnc3[nH]ccc23)CC1"
measured_on = "human recombinant ENPP1 (Homo sapiens)"
reading = "< 1 µM"

[[record]]
molecule = "CC(C)(C)OC(=O)NS(=O)(=O)NCc1ccc(-c2ccnc3[nH]ccc23)cc1"
measured_on = "human recombinant ENPP1 (Homo sapiens)"
reading = "> 10 µM"

[[record]]
molecule = "Cn1ccc2c(N3CCC(CNS(N)(=O)=O)CC3)ncnc21"
measured_on = "human recombinant ENPP1 (Homo sapiens)"
reading = "< 1 µM"

[[record]]
molecule = "NCc1ccc(-c2ncnc3[nH]ccc23)cc1 [Example 11, hydrochloride]"
measured_on = "human recombinant ENPP1 (Homo sapiens)"
reading = "1 to 10 µM"

[[record]]
molecule = "O=S(=O)(NCC1CCN(c2ncnc3[nH]ccc23)CC1)c1cccs1"
measured_on = "human recombinant ENPP1 (Homo sapiens)"
reading = "1 to 10 µM"

[[record]]
molecule = "CSc1nc(N2CCC(CCNS(N)(=O)=O)CC2)c2cc[nH]c2n1"
measured_on = "human recombinant ENPP1 (Homo sapiens)"
reading = "> 10 µM"

[[record]]
molecule = "CC(NS(N)(=O)=O)c1ccc(-c2ncnc3[nH]ccc23)cc1 (stereo not shown) [Example 27, hydrochloride]"
measured_on = "human recombinant ENPP1 (Homo sapiens)"
reading = "< 1 µM"

[[record]]
molecule = "NS(=O)(=O)N1CCc2cc(-c3ncnc4[nH]ccc34)ccc2C1 [Example 42, hydrochloride]"
measured_on = "human recombinant ENPP1 (Homo sapiens)"
reading = "1 to 10 µM"

[[record]]
molecule = "CC(C)(NS(N)(=O)=O)c1ccc(-c2ncnc3[nH]ccc23)cc1 [Example 26, hydrochloride]"
measured_on = "human recombinant ENPP1 (Homo sapiens)"
reading = "< 1 µM"

[[record]]
molecule = "NS(=O)(=O)NCC1CCN(c2ncnc3c2ccn3-c2ccco2)CC1 [Example 83, hydrochloride]"
measured_on = "human recombinant ENPP1 (Homo sapiens)"
reading = "< 1 µM"

[[record]]
molecule = "CC(C)(N)c1ccc(-c2ncnc3c2ccn3-c2cccnc2)cc1 [Example 15, hydrochloride]"
measured_on = "human recombinant ENPP1 (Homo sapiens)"
reading = "> 10 µM"

[[record]]
molecule = "NS(=O)(=O)NC1CCN(c2ncnc3[nH]ccc23)CC1 [Example 79, hydrochloride]"
measured_on = "human recombinant ENPP1 (Homo sapiens)"
reading = "1 to 10 µM"

[[record]]
molecule = "NCC1CCN(c2ncnc3c2ccn3-c2ccco2)CC1 [Example 69, hydrochloride]"
measured_on = "human recombinant ENPP1 (Homo sapiens)"
reading = "1 to 10 µM"

[[record]]
molecule = "NS(=O)(=O)NCc1ccc(-c2ncnc3[nH]ccc23)cc1F [Example 30, hydrochloride]"
measured_on = "human recombinant ENPP1 (Homo sapiens)"
reading = "1 to 10 µM"

[[record]]
molecule = "CC(NS(N)(=O)=O)C1CCN(c2ncnc3[nH]ccc23)CC1 (stereo not shown) [Example 82, hydrochloride]"
measured_on = "human recombinant ENPP1 (Homo sapiens)"
reading = "< 1 µM"

[[record]]
molecule = "Cc1c[nH]c2ncnc(N3CCC(CNS(N)(=O)=O)CC3)c12 [Example 78, hydrochloride]"
measured_on = "human recombinant ENPP1 (Homo sapiens)"
reading = "< 1 µM"

[[record]]
molecule = "c1nc(N2CCC3(CCNC3)CC2)c2cc[nH]c2n1 [Example 66, hydrochloride]"
measured_on = "human recombinant ENPP1 (Homo sapiens)"
reading = "> 10 µM"

[[record]]
molecule = "NS(=O)(=O)NCC1CCN(c2ncnc3c2ccn3-c2ccccc2)CC1"
measured_on = "human recombinant ENPP1 (Homo sapiens)"
reading = "< 1 µM"

[[record]]
molecule = "NCc1ccc(-c2ccnc3[nH]ccc23)cc1 [Example 10, hydrochloride]"
measured_on = "human recombinant ENPP1 (Homo sapiens)"
reading = "> 10 µM"

[[record]]
molecule = "Cc1c[nH]c2ncnc(N3CCC(CN)CC3)c12 [Example 63, hydrochloride]"
measured_on = "human recombinant ENPP1 (Homo sapiens)"
reading = "> 10 µM"

[[record]]
molecule = "Cc1cc2c(N3CCC(CNS(N)(=O)=O)CC3)ncnc2[nH]1"
measured_on = "human recombinant ENPP1 (Homo sapiens)"
reading = "< 1 µM"

[[record]]
molecule = "NS(=O)(=O)NCC1CCN(c2ncnc3c2ccn3C2CC2)CC1"
measured_on = "human recombinant ENPP1 (Homo sapiens)"
reading = "< 1 µM"

[[record]]
molecule = "NS(=O)(=O)NCc1cccc(-c2ncnc3[nH]ccc23)c1 [Example 34, hydrochloride]"
measured_on = "human recombinant ENPP1 (Homo sapiens)"
reading = "1 to 10 µM"

